Measured values drawn from patent US12679839B2 for this set.

Catalogue of IC50 values
tested on: RNA polymerase II Serine 5 phosphorylation (Rpb1 CTD), downstream substrate of CDK7; assay: Imaging-based cellular RNA PolII Ser5 phosphorylation assay in A549 cells; format: cell-based, human; conditions: Homo sapiens, A549, 3 h, challenged with compound for 3 hours, read-out: pRNA polII Ser5 (A549) pIC50 (converted)

Note to self: IC50 recorded for CO[C@H]1CC[C@H](Nc2ncc3c(n2)CN(C(=O)[C@@H]2CCN(C)C[C@H]2c2ccc(C)nc2)[C@H](C)C3)CC1 (relative stereo) [Compound 109] was > 10 µM

Recorded IC50 (molecule C[C@@H]1Cc2cnc(NCc3cn(C)cn3)nc2CN1C(=O)[C@H]1CCN(C)C[C@@H]1c1ccccc1 [Compound 63] ): > 10 µM

So, C[C@@H]1Cc2cnc(NC3CCOCC3)nc2CN1C(=O)[C@H]1CCN(C2CC2)C[C@@H]1c1ccccc1 (single isomer, unassigned) [Compound 161] ? Its IC50 was > 10 µM

C[C@@H]1Cc2cnc(NC3CCOCC3)nc2CN1C(=O)[C@H]1CCN(C)C[C@@H]1c1ccccc1 [Compound 47] yielded IC50 of ~0.0708 µM

For this molecule ( C[C@@H]1Cc2cnc(NCc3ccn(C)n3)nc2CN1C(=O)[C@H]1CCN(C)C[C@@H]1c1cccc(C(F)F)c1 (relative stereo) [Compound 124] ), measured IC50 is ~0.0447 µM

Looking up C[C@@H]1Cc2cnc(NC3CCOCC3)nc2CN1C(=O)[C@@H]1CCN(C)C[C@H]1c1ccc(Cl)c(F)c1 [Compound 122a] , I see its IC50 listed as > 10 µM

The molecule listed as C[C@@H]1Cc2cnc(NC3CCOCC3)nc2[C@@H](C)N1C(=O)[C@H]1CCN(C)C[C@@H]1c1ccccc1 (single isomer, unassigned) [Compound 195a] has a reported IC50 of > 10 µM

Measured IC50, CO[C@H]1CC[C@H](Nc2ncc3c(n2)CN(C(=O)[C@H]2CCN(C)C[C@@H]2c2ccnc(C)c2)[C@H](C)C3)CC1 (relative stereo) [Compound 106] : > 10 µM

----------
Below, each of the compounds is paired with its reported IC50 value.
target: CDK7/Cyclin H/MAT-1 complex (Homo sapiens); construct: Human CDK7 (amino acids 1-346); His6 (N); TEV protease cleavage site (N); made in house; host or cells: baculovirus-SF9 insect cells; test: Absorbance kinetic assay (20 nM CDK7/Cyclin H/MAT-1 complex); format: biochemical; conditions: read-out: CDK7 (20 nM) pIC50 (converted)
Sequence (P50613 whole entry, the tested form may be a part): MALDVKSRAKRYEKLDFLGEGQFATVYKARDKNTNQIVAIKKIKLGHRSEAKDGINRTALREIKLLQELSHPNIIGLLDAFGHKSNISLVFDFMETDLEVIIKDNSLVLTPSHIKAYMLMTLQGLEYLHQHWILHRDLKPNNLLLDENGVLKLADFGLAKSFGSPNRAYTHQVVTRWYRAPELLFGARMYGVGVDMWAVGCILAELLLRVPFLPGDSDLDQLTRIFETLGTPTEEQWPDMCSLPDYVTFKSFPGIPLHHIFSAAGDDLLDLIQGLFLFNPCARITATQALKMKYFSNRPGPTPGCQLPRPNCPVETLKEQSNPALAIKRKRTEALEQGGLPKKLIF
Sequence (P51946 whole entry partner, the tested form may be a part): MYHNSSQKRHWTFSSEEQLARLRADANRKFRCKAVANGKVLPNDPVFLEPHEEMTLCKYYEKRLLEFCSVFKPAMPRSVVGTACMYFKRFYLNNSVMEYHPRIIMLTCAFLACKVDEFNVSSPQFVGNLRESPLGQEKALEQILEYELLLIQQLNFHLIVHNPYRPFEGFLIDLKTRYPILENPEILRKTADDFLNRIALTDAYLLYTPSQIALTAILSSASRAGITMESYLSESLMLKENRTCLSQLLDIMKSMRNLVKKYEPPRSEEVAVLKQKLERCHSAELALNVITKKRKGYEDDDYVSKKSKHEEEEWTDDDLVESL
Sequence (P51948 whole entry partner, the tested form may be a part): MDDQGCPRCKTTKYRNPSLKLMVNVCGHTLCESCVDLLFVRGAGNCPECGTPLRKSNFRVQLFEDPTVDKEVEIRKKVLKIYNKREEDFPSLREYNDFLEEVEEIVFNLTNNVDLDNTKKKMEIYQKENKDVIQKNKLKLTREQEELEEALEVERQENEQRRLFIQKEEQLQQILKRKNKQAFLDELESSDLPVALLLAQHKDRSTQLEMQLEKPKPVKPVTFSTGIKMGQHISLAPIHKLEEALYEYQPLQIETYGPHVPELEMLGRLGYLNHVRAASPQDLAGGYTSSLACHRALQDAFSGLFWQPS

Solved entries (count: 2):
>  <compound>
CC[C@H]1Cc2cnc(NC3CCOCC3)nc2CN1C(=O)[C@H]1CCN(C)C[C@@H]1c1ccccc1 (relative stereo)

>  <target-desc>
CDK7/Cyclin H/MAT-1 complex (Homo sapiens)

>  <measured-parameter>
IC50

>  <result>
> 10000 nM

$$$$
>  <compound>
Cc1cccc([C@H]2CN(C)CC[C@@H]2C(=O)N2Cc3nc(NC4CCOCC4)ncc3C[C@H]2C)c1 (relative stereo)

>  <target-desc>
CDK7/Cyclin H/MAT-1 complex (Homo sapiens)

>  <measured-parameter>
IC50

>  <result>
< 9.77 nM

$$$$

Here is the next item to consider.
Lookup result for C[C@@H]1Cc2cnc(NCc3ccn(C)n3)nc2CN1C(=O)[C@H]1CCN(C)C[C@@H]1C(F)(F)F (relative stereo) ; measured IC50: < 9.77 nM
